experiment: N-linked glycosylation inhibitors, luciferase reporter, dose response, D54 ERlucT cells, luminescence, cherry-picks (AID 624491); conditions: 24 h, 100% = twice neutral-control luminescence; series mostly up to 19.5 µM;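 further: signal gain reflects blocked N-linked glycosylation of a luciferase reporter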
Among all 1,800 compounds or so, about 1,400 (78%) were called active. Not shown: some 2% with an inconclusive outcome. So high a share suggests a set chosen from earlier hits. A selection follows. Measured potencies and affinities stand elsewhere.
quantity: activation (NLG inhibition)

> print(dat)
                                    compound                     quantity    result
 1  CCOC(=O)c1c(NC(C)=O)sc2c1CCC(C=O)=C2Sc1ccccc1  activation (NLG inhibition)  inactive
 2           O=C(/C=C/c1ccccc1Cl)c1ccc(O)cc1  activation (NLG inhibition)  inactive
 3  CC(C)[n+]1ccn(C2=C([O-])c3ccccc3C(=O)/C2=N\S(=O)(=O)c2ccccc2)c1  activation (NLG inhibition)  inactive
 4  COc1ccc(/C=C/C(=O)c2ccc3c4c(cccc24)CC3)cc1  activation (NLG inhibition)  inactive
 5  CC1=Nc2cc(C(=O)NCC3CCCO3)ccc2Sc2ccc(Br)cc21 (stereo unspecified)  activation (NLG inhibition)  inactive
 6        COc1ccc(/C=C2\COc3ccccc3C2=O)cc1OC  activation (NLG inhibition)  inactive
 7  O=c1cc(-c2ccccc2)[nH]n1-c1nc2ccccc2[nH]1  activation (NLG inhibition)  inactive
 8      COc1ccc(CN(C)c2ncnc3sccc23)c(OC)c1OC  activation (NLG inhibition)  inactive
 9    COc1cc(/C=C/C(=O)c2ccc(Cl)s2)cc(OC)c1O  activation (NLG inhibition)  inactive
10  Cn1c(SCC(=O)c2ccccc2)ncc(C(=O)Nc2ccc(F)cc2)c1=O  activation (NLG inhibition)  inactive
11  Cc1cc(Br)ccc1NC(=O)CCCOc1cc(=O)n(C)c2ccccc12  activation (NLG inhibition)  inactive
